Values from patent US20180228828A1

# Protocol Summary: human bioavailability comparison study, Tablet Formulation 10 vs co-administered single entity products
# Format: in vivo
# Experimental Conditions: human, plasma, oral, Treatment C: one unit Tablet Formulation 10b; human plasma, fasted
Value Type: AUC(0-inf) (µM·h)
Field: numeric (µM·h). Do not append units.

Compound	AUC(0-inf) (µM·h)
COC(=O)N[C@H](C(=O)N1CCC[C@H]1c1nc(-c2ccc3c(c2)O[C@@H](c2ccccc2)n2c-3cc3cc(-c4c[nH]c([C@@H]5CCCN5C(=O)[C@@H](NC(=O)OC)C(C)C)n4)ccc32)c[nH]1)C(C)C [Compound II]	1.85

Documented AUC(0-inf) of C=C[C@@H]1C[C@]1(NC(=O)[C@@H]1C[C@@H]2CN1C(=O)[C@H](C(C)(C)C)NC(=O)O[C@@H]1C[C@H]1CCCCCc1nc3ccc(OC)cc3nc1O2)C(=O)NS(=O)(=O)C1CC1 [Compound III, hydrate] : 0.47
